Target: STAT4 (Homo sapiens)
Sequence (Q14765 whole entry, species assumed): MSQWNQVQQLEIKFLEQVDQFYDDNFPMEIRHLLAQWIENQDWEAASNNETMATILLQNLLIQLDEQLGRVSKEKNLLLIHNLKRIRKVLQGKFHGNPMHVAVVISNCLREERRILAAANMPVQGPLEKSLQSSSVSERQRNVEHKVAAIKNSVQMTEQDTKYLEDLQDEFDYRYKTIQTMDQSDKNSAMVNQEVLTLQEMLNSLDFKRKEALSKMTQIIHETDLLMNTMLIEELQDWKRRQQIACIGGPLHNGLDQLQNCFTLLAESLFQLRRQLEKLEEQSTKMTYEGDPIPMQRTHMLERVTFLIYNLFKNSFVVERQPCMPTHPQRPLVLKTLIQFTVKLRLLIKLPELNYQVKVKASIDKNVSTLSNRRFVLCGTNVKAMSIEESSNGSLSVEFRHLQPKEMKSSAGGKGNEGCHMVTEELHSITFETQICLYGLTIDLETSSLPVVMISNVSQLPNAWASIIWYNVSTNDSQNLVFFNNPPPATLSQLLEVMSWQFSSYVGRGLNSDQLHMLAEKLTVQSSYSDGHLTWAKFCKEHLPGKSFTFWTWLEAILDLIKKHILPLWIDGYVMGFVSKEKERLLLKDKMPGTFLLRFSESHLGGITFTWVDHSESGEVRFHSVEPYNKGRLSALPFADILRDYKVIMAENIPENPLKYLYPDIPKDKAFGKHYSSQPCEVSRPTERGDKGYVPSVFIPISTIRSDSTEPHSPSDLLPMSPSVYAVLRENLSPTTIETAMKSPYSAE
Experiment: Competitive fluorescence polarization (FP) assay, STAT4
Assay type: binding
Details: IC50 STAT4 (FP assay), 1 mM TCEP, 3 hr
endpointName: pIC50
The read-out pIC50 is expressed as -log10 of concentration in moles per litre.

Kindly indicate its recorded pIC50. Item: Cc1nc(/N=N/c2ccc(S(=O)(=O)O)cc2S(=O)(=O)O)c(COP(=O)(O)O)c(C=O)c1O [PPADS]
5.60

* * *

Target: STAT4 (Homo sapiens)
Test: Competitive fluorescence polarization (FP) assay, STAT4
Format: binding
Settings: IC50 STAT4 (FP assay), 1 mM DTT, 4 hr
endpointName: IC50 (µM)
Number only, in µM; omit the unit.

Please tell me the measured IC50 for Cc1nc(/N=N/c2ccc(S(=O)(=O)O)cc2S(=O)(=O)O)c(COP(=O)(O)O)c(C=O)c1O [PPADS] ; system: STAT4 (Homo sapiens).
4.9

Data provenance: paper PMC12442245
